- TEST_TARGET: FGFR1 (Homo sapiens)
- Construct: purchased Millipore
- Sequence (P11362 22-822): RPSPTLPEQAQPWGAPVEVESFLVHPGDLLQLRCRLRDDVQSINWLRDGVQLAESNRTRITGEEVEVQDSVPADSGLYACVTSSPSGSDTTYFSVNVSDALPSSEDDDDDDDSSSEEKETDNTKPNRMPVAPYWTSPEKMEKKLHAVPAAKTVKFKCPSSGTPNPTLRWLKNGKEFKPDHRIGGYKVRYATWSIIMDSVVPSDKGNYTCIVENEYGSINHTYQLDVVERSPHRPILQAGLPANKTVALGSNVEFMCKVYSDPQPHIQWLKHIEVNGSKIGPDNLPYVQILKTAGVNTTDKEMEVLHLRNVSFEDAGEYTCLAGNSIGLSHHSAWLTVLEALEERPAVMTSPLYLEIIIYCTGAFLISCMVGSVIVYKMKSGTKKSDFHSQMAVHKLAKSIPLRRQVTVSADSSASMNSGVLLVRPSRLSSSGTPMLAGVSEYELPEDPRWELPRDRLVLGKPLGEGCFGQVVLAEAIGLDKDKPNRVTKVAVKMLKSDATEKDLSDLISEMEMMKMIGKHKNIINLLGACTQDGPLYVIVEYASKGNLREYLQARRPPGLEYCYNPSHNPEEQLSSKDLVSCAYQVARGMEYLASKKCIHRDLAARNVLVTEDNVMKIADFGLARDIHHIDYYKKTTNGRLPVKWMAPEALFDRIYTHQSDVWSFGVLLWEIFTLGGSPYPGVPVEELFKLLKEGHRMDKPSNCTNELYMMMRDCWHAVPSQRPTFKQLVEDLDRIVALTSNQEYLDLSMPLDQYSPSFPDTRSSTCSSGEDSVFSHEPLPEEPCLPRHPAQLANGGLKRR
- TEST_METHOD_NOTES: ELISA kinase assay, FGFR1
- Assay type: biochemical
- MEASUREMENT_PARAMETERS: 0.1 μM compound
MEASUREMENT_LABEL: inhibition at 0.1 µM (%)

{"STRUCTURE_STRING": "Cn1cc(-c2cnc3ccn(S(=O)(=O)c4ccc(N)cc4)c3n2)cn1", "MEASUREMENT_LABEL": "inhibition at 0.1 µM", "ASSAY_RESULT": 31.8}

a: Cn1cc(-c2cnc3ccn(S(=O)(=O)c4cccc([N+](=O)[O-])c4)c3n2)cn1
b: Cn1cc(-c2cnc3ccn(S(=O)(=O)c4cccc(N)c4)c3n2)cn1
Could you determine which record has the numerically smaller inhibition at 0.1 µM? Candidates: a and b In your reply, give the label of the chosen option.
b
(b: 34.7%, a: 61.1%)

====

- TEST_TARGET: FGFR1 (Homo sapiens)
- Construct: purchased Millipore
- TEST_METHOD_NOTES: ELISA kinase assay, FGFR1
- Format: biochemical
- MEASUREMENT_PARAMETERS: 0.1 μM compound
MEASUREMENT_LABEL: inhibition at 0.1 µM (%)

{"STRUCTURE_STRING": "O=[N+]([O-])c1cccc(S(=O)(=O)n2ccc3ncc(-c4ccc(CO)cc4)nc32)c1", "TEST_TARGET": "FGFR1 (Homo sapiens)", "inhibition at 0.1 µM / %": 52.2}
{"STRUCTURE_STRING": "CC(=O)Nc1cccc(S(=O)(=O)n2ccc3ncc(-c4cnn(C)c4)nc32)c1", "TEST_TARGET": "FGFR1 (Homo sapiens)", "inhibition at 0.1 µM / %": 44.7}
